# target-or-system: β-glucuronidase (Bos taurus)
# Sequence (A3KMY8 24-652): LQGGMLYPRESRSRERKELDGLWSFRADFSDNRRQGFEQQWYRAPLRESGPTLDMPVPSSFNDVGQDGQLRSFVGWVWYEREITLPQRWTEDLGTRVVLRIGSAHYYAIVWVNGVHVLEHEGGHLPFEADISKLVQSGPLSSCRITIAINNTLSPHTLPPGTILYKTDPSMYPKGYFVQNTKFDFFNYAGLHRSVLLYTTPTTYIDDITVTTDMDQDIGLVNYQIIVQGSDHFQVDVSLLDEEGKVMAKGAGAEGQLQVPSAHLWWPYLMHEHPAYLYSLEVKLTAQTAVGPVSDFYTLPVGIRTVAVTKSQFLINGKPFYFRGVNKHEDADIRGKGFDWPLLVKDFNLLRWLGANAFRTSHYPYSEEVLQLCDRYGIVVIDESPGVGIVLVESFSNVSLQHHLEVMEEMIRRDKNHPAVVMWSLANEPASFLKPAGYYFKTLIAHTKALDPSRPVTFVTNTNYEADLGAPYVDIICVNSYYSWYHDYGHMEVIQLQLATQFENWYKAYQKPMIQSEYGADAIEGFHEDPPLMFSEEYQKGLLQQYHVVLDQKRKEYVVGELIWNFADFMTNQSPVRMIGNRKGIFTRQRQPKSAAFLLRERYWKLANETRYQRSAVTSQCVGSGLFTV
# test-details: β-glucuronidase inhibition
# Format: biochemical
# experimental-setup: grouping in words
quantity-kind: activity group according to inhibitory IC50 values

smiles_code=Oc1ccc(-c2nnc(-c3ccc4[nH]ccc4c3)s2)cc1 test_result="moderate active"
smiles_code=Oc1ccccc1-c1nnc(-c2ccc3[nH]ccc3c2)s1 test_result="highly active"
smiles_code=Oc1cccc(-c2nnc(-c3ccc4[nH]ccc4c3)s2)c1 test_result="moderate active"
smiles_code=Oc1cccc(-c2nnc(-c3ccc4[nH]ccc4c3)s2)c1O test_result="highly active"
smiles_code=Cc1ccccc1-c1nnc(-c2ccc3[nH]ccc3c2)s1 test_result="low active"
smiles_code=Fc1ccc(-c2nnc(-c3ccc4[nH]ccc4c3)s2)cc1 test_result="moderate active"
smiles_code=Cc1ccc(-c2nnc(-c3ccc4[nH]ccc4c3)s2)cc1 test_result="low active"
smiles_code=Oc1ccc(-c2nnc(-c3ccc4[nH]ccc4c3)s2)cc1O test_result="highly active"

Values compiled from paper PMC6661955.
